assaySummary: logD determination (liquid-liquid distribution chromatography, octanol-coated column)
setupConditions: octanol-coated column with octanol-saturated mobile phase, pH 5.9
Where a name gives a salt, the structure may show the parent alone.
Collected chromatographic logD values appear next to each entry.
observationType: chromatographic logD

[[record]]
compound = "COc1ccc(-n2nc(C(N)=O)c3c2C(=O)N(c2ccc(N4CCCCC4=O)cc2)CC3)cc1 [Apixaban]"
limitqualifier = "<"
recordedvalue = 1.4

[[record]]
compound = "N[C@@H](Cc1cc(I)c(Oc2cc(I)c(O)c(I)c2)c(I)c1)C(=O)O [Levothyroxine sodium]"
limitqualifier = "="
recordedvalue = 3.37

[[record]]
compound = "COC(=O)[C@H](c1ccccc1Cl)N1CCc2sccc2C1 [Clopidogrel bisulfate]"
limitqualifier = "="
recordedvalue = 4.03

[[record]]
compound = "O=C(NC[C@H]1CN(c2ccc(N3CCOCC3=O)cc2)C(=O)O1)c1ccc(Cl)s1 [Rivaroxaban]"
limitqualifier = "="
recordedvalue = 1.43

[[record]]
compound = "CCOC(=O)C1=C(COCCN)NC(C)=C(C(=O)OC)C1c1ccccc1Cl (stereo not drawn) [Amlodipine besylate]"
limitqualifier = "="
recordedvalue = 1.46

[[record]]
compound = "COCCc1ccc(OCC(O)CNC(C)C)cc1 (stereo not drawn) [Metoprolol tartrate]"
limitqualifier = "="
recordedvalue = -1.8

[[record]]
compound = "CC(=O)Oc1ccccc1C(=O)O [Aspirin]"
limitqualifier = "="
recordedvalue = -1.5

[[record]]
compound = "C[C@@H](NCCCc1cccc(C(F)(F)F)c1)c1cccc2ccccc12 [Cinacalcet HCl]"
limitqualifier = "="
recordedvalue = 2.83

[[record]]
compound = "Cc1ncc(C[n+]2csc(CCO)c2C)c(N)n1 [Thiamin]"
limitqualifier = "<"
recordedvalue = -1.5

[[record]]
compound = "Oc1ncnc2[nH]ncc12 [Allopurinol]"
limitqualifier = "="
recordedvalue = -0.3

[[record]]
compound = "CC(=O)S[C@@H]1CC2=CC(=O)CC[C@]2(C)[C@H]2CC[C@@]3(C)[C@@H](CC[C@@]34CCC(=O)O4)[C@H]12 [Spironolactone]"
limitqualifier = "="
recordedvalue = 2.53

[[record]]
compound = "NCCCC[C@H](N[C@@H](CCc1ccccc1)C(=O)O)C(=O)N1CCC[C@H]1C(=O)O [Lisinopril]"
limitqualifier = "="
recordedvalue = -0.54

[[record]]
compound = "O=C1NC(=O)C(c2ccccc2)(c2ccccc2)N1 [Phenytoin sodium]"
limitqualifier = "="
recordedvalue = 2.43

[[record]]
compound = "CC1(C)S[C@@H]2[C@H](NC(=O)[C@H](N)c3ccc(O)cc3)C(=O)N2[C@H]1C(=O)O [Amoxicillin]"
limitqualifier = "="
recordedvalue = 0

[[record]]
compound = "Cc1cc2nc3c(=O)[nH]c(=O)nc-3n(C[C@H](O)[C@H](O)[C@H](O)CO)c2cc1C [Riboflavin]"
limitqualifier = "<"
recordedvalue = -1.5

